Target: UniProt P05067
Sequence (P05067 whole entry): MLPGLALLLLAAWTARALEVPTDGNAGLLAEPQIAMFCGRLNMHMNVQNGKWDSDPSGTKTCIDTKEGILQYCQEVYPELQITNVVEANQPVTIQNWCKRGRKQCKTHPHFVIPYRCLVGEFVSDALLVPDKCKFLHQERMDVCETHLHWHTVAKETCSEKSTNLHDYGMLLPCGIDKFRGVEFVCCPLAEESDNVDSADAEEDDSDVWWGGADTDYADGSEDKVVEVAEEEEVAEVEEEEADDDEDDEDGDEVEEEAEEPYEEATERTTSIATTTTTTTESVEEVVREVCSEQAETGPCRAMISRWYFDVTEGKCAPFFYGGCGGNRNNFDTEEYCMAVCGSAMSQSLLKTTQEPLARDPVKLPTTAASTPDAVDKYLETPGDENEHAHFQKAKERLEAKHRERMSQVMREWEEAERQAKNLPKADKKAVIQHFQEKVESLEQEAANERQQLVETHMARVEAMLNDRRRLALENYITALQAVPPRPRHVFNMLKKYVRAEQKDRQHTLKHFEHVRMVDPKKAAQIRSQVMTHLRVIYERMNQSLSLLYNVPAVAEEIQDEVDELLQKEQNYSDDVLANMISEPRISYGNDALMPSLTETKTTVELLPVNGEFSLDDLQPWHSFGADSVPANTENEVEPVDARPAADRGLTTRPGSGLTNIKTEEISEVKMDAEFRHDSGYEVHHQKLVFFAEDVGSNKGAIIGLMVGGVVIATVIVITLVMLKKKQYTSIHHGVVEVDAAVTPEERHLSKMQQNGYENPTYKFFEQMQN
Experiment: Inhibition of Cu2+-induced HFIP-pretreated amyloid beta (1 to 42) (unknown origin) aggregation at 25 uM measured after 24 hrs by thioflavin-T fluorescence assay relative to control
Rule: inhibition under 40% gives Criterion not met, otherwise Criterion met.

Examples from the recorded data:
Compound | Target system | Assigned label
COC(=O)C(C)c1ccc(-c2ccc(NCc3cc(CN(C)C)cc(OC)c3O)cc2)c(F)c1 (stereo not given) | UniProt P05067 | Criterion not met
COC(=O)C(C)c1ccc(-c2ccc(NCc3cc(N(C)C)ccc3O)cc2)c(F)c1 (stereo not given) | UniProt P05067 | Criterion met

Could you tell me if the measured inhibition of COC(=O)C(C)c1ccc(-c2ccc(NCc3cc(CN(C)C)ccc3O)cc2)c(F)c1 (stereo not given) reaches 40% or more?
Criterion met

Could you tell me if the measured inhibition of COC(=O)C(C)c1ccc(-c2ccc(NCc3cc(NC(C)=O)ccc3O)cc2)c(F)c1 (stereo not given) reaches 40% or more?
Criterion not met

Could you tell me if the measured inhibition of COC(=O)C(C)c1ccc(-c2ccc(NCc3cc(C)ccc3O)cc2)c(F)c1 (stereo not given) reaches 40% or more?
Criterion met

---

Target: Amine oxidase [flavin-containing] B (Homo sapiens, UniProt P27338)
Sequence (P27338 whole entry): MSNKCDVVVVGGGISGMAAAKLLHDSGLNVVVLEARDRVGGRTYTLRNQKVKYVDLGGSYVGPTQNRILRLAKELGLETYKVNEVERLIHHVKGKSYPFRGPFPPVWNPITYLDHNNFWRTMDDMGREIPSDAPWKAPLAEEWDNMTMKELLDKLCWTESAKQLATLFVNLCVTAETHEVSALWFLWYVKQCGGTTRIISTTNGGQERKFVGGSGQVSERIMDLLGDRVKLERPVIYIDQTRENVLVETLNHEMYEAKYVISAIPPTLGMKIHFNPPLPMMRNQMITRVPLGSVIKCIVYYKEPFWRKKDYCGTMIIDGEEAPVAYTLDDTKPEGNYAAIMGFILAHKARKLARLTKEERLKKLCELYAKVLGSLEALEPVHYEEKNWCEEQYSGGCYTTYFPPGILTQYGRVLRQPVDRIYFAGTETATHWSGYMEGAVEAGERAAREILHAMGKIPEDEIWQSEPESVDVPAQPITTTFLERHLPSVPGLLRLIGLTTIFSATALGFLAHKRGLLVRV
Test: Inhibition of recombinant human MAOB expressed in baculovirus infected in BTI cells at 10 uM using kynuramine as substrate after 30 mins by fluorescence based assay relative to control
Settings: 0.5 h
Lab note: class by inhibition at 10 µM, see low band: < 30%; middle band: ≥ 30% and < 40%; high band: ≥ 40%

Molecule | Assigned label
COC(=O)C(C)c1ccc(-c2ccc(NCc3cc(CN(C)C)ccc3O)cc2)c(F)c1 (stereo not drawn) | middle band
COC(=O)C(C)c1ccc(-c2ccc(NCc3cc(NC(C)=O)ccc3O)cc2)c(F)c1 (stereo not drawn) | high band
COC(=O)C(C)c1ccc(-c2ccc(NCc3nc(C)c(C)nc3C)cc2)c(F)c1 (stereo not drawn) | high band
COC(=O)C(C)c1ccc(-c2ccc(NCc3cccc(CN4CCCCC4)c3O)cc2)c(F)c1 (stereo not drawn) | low band
COC(=O)C(C)c1ccc(-c2ccc(NCc3cc(Cl)ccc3O)cc2)c(F)c1 (stereo not drawn) | low band
COC(=O)C(C)c1ccc(-c2ccc(NCc3cccc(CN(C)C)c3O)cc2)c(F)c1 (stereo not drawn) | low band
COC(=O)C(C)c1ccc(-c2ccc(NCc3ccc(OC)cc3O)cc2)c(F)c1 (stereo not drawn) | low band
COC(=O)C(C)c1ccc(-c2ccc(NCc3ccccn3)cc2)c(F)c1 (stereo not drawn) | high band
COC(=O)C(C)c1ccc(-c2ccc(NCc3cc(CN4CCCCC4)ccc3O)cc2)c(F)c1 (stereo not drawn) | low band
COC(=O)C(C)c1ccc(-c2ccc(NCc3cc(OC)ccc3O)cc2)c(F)c1 (stereo not drawn) | middle band

Exam item: assign COC(=O)C(C)c1ccc(-c2ccc(NCc3cc(C)ccc3O)cc2)c(F)c1 (stereo not drawn) to the correct category.
low band

Exam item: assign COC(=O)C(C)c1ccc(-c2ccc(NCc3cc(N(C)C)ccc3O)cc2)c(F)c1 (stereo not drawn) to the correct category.
high band

Exam item: assign COC(=O)C(C)c1ccc(-c2ccc(NCc3cc(Br)ccc3O)cc2)c(F)c1 (stereo not drawn) to the correct category.
low band

---

Molecular target: Amyloid-beta precursor protein (Homo sapiens)
Assay: Disaggregation of self-induced amyloid beta (1 to 42) (unknown origin) preformed fibrils at 25 uM measured after 24 hrs by thioflavin-T fluorescence assay relative to control
Rule: Activity under 30% gives criterion not met, otherwise criterion met.

Examples from the recorded data:
Compound | Target system | Assigned label
CC(C(=O)O)c1ccc(-c2ccccc2)c(F)c1 (stereo not given) [FLURBIPROFEN] | Amyloid-beta precursor protein (Homo sapiens) | criterion not met
COC(=O)C(C)c1ccc(-c2ccc(NCc3cc(Br)ccc3O)cc2)c(F)c1 (stereo not given) | Amyloid-beta precursor protein (Homo sapiens) | criterion met
COC(=O)C(C)c1ccc(-c2ccc(NCc3cc(CN(C)C)cc(OC)c3O)cc2)c(F)c1 (stereo not given) | Amyloid-beta precursor protein (Homo sapiens) | criterion met

Could you tell me if the measured Activity of COC(=O)C(C)c1ccc(-c2ccc(NCc3cc(C)ccc3O)cc2)c(F)c1 (stereo not given) reaches 30% or more?
criterion met

Could you tell me if the measured Activity of Oc1c(I)cc(Cl)c2cccnc12 reaches 30% or more?
criterion met
